Data credit: the RepoRT retention time repository

Assay: Agilent ZORBAX 300 SB-C18, 150 × 1 mm, 3.5 µm; A: water + 0.01% heptafluorobutyric acid; B: acetonitrile + 0.01% heptafluorobutyric acid; gradient (min/%B) 0/0 100/90
Settings: stereoisomer not certain
READOUT_LABEL: LC retention time
Write the numeric value and follow it with the unit.

Ask: Name the reported LC retention time value associated with the molecule NCCOc1ccc2ccccc2c1
Result: 9.22 min

Ask: I am curious: what LC retention time value has been reported for Cc1c[n+](C)c(C)cc1-c1ccccc1 ?
Result: 9.13 min

Ask: May I ask what LC retention time has been recorded for Cn1c2c(c(=O)n(C)c1=O)C1c3ccccc3OCC1C(C)(C)O2 (configuration not stated) ?
Result: 13.2 min

Ask: Look at this molecule and give its reported LC retention time. Cc1[nH]c2ccccc2c1CCNC(=O)C1CCCN1C(=O)Nc1ccccc1 (configuration not stated)
Result: 12 min

Ask: // lookup LC retention time for O=C(NCc1ccncc1)c1ccc(-c2ccccc2)cc1
Result: 10.2 min

Ask: What value of LC retention time has been recorded for this entry: Cc1ccc(N)c(N)c1
Result: 7.42 min

Ask: Which LC retention time is reported for this molecule? CC(C)(C(=O)O)c1ccc(C(O)CCCN2CCC(C(O)(c3ccccc3)c3ccccc3)CC2)cc1 (configuration not stated)
Result: 11.5 min

Ask: // lookup LC retention time for CCCCCCCCCCCCC(N)=O
Result: 18.2 min

Ask: Endpoint output: LC retention time of Nc1cccc(-c2cc3ccccc3oc2=O)c1 . Value?
Result: 10.4 min

Ask: Which LC retention time reading was recorded for the molecule Cn1c(C2CCCCC2)nc2ccccc21 ?
Result: 9.55 min

Ask: // LC retention time lookup, key: OCC1CCCN2CCCCC12 (configuration not stated)
Result: 6.81 min

Ask: Name the recorded LC retention time for CCCCOC(=O)C1C(C)=NC(=O)NC1c1ccc(CC)cc1 (configuration not stated) .
Result: 14.3 min

* * *

Assay: Agilent ZORBAX 300 SB-C18, 150 × 1 mm, 3.5 µm; A: water + 0.01% heptafluorobutyric acid; B: acetonitrile + 0.01% heptafluorobutyric acid; gradient (min/%B) 0/0 100/90
Conditions: stereoisomer not certain
If the reported LC retention time equals or exceeds 9 min, assign T. If not, assign F.

Ask: Has Nc1ccc(N2CCOCC2)c(N)c1 a recorded LC retention time greater than or equal to 9 min?
Result: F

Ask: Decide: is the reported value of LC retention time for Cc1nn(CC(=O)NCCO)c(=O)c2ccccc12 equal to or greater than 9 min?
Result: F

Ask: # check: LC retention time of CCOC(=O)c1ccc(Nc2c(N)c(=O)oc3ccccc23)cc1 is greater than or equal to 9 min
Result: T

Ask: Say whether Cc1ccc(NC(=O)c2ccc(N)cc2)cc1 shows LC retention time of 9 min or more.
Result: T

Ask: Exam item: decide whether the reported LC retention time for CNCc1n[nH]c(=O)[nH]1 is at least 9 min.
Result: F

Ask: Form field: LC retention time at least 9 min? Entry: O=S(=O)(O)CCNC1CCCCC1
Result: F

Ask: Check this compound for LC retention time at or above 9 min: COc1ccc2occ(C(=O)c3ccccc3C)c(=O)c2c1
Result: T

Ask: # check: LC retention time of Cc1ccoc1CC[N+](C)(C)C is greater than or equal to 9 min
Result: F

Ask: Dear colleague, could you confirm whether COc1ccc(Cc2c(O)n(-c3ccccc3)c(=O)[nH]c2=O)c(OC)c1 has LC retention time at or above 9 min?
Result: T

Ask: Hi team, for c1ccc(-n2cnnn2)cc1 , is the recorded LC retention time at or above 9 min?
Result: T

Ask: For this compound, is measured LC retention time 9 min or higher? O=Cc1ccc[nH]1
Result: F

Ask: Is reported LC retention time greater than or equal to 9 min here: CN(C)c1ccc(C=NNc2nc3ccccc3c(=O)n2-c2ccccc2)cc1
Result: T

Ask: Does the compound O=C1NCCCC1C(=O)N1CCN(C(=O)c2ccco2)CC1 (stereo unspecified) have recorded LC retention time that is 9 min or more?
Result: F

Ask: hey, is LC retention time for this one >= 9 min? CCc1ccc(N2CC(C(=O)Nc3ccc(N(C)C)cc3)CC2=O)cc1 (stereo unspecified)
Result: T

Ask: Dear colleague, could you confirm whether CC(=O)N(C)C1=C(N2CCCC2)C(=O)c2ccccc2C1=O has LC retention time at or above 9 min?
Result: T

Ask: Form field: LC retention time at least 9 min? Entry: COc1ccc2c3c1OC1C(=O)CCC4C(C2)N(C)CCC314 (stereo unspecified)
Result: F

Ask: Assess whether reported LC retention time for COC(=O)C1C2CC3c4[nH]c5cc(OC)ccc5c4CCN3CC2CC(OC(=O)c2cc(OC)c(OC)c(OC)c2)C1OC (stereo unspecified) sits at 9 min or higher.
Result: T

Ask: Please tell me: is the compound O=C(O)c1cc(-c2ccncc2)nc2ccccc12 at or over 9 min in terms of LC retention time?
Result: F

Ask: Check if LC retention time >= 9 min (inclusive). Item: O=C(NCCNC(=O)c1ccccn1)c1ccccn1
Result: F

Ask: Is it the case that Cc1cc2n(n1)c1cc(C)nn1c1cc(C)nn21 has LC retention time reaching or exceeding 9 min?
Result: T

Ask: Kindly determine if LC retention time recorded for c1ccc(-c2cnc(-c3ccncc3)o2)cc1 is above or exactly 9 min.
Result: T

Ask: Given CCCCn1ccnc1 , state whether its LC retention time is at least 9 min.
Result: F

Ask: hey, is LC retention time for this one >= 9 min? Cc1cc(N)c(N)cc1C
Result: F

Ask: Hello, I need to know if O=C(NN=Cc1ccco1)c1ccccc1 has measured LC retention time not below 9 min. Thanks!
Result: T

Ask: Could you please find out whether NC(=O)c1cc(O)c(O)c(O)c1 has LC retention time that meets 9 min or exceeds it?
Result: F

Ask: Textbook exercise: given the entry Cc1ccncn1 , state whether its LC retention time is greater than or equal to 9 min.
Result: F
